Would you kindly list TGI for each of these molecules?
Test system: MDA-MB-468 breast
test-details: NCI tumour cell line growth inhibition, 48 h
One number for each entry, in µM.

[
  {
    "molecule": "NC(=O)c1ccc(I)c(N=O)c1",
    "TGI [µM]": 61.3
  },
  {
    "molecule": "CC1OC(n2c3ccccc3c3c4c(c5c6ccccc6[nH]c5c32)C(=O)N(CCN[C@@H]2CCC[C@H]2N)C4=O)CC(O)C1O (stereo not given in full)",
    "TGI [µM]": 3
  },
  {
    "molecule": "O=C1C(N2CC2)=C(N2CC2)C(=O)C(N2CC2)=C1N1CC1",
    "TGI [µM]": 2.44
  }
]

Now consider the entry below.
Case O=S(=O)(Nc1ccc(Br)c(Cl)c1)c1ccc(-c2cnc(C3CC3)o2)cc1 , MDA-MB-468 breast, TGI recorded as 2.86

###

Tested on: MDA-MB-468 breast
test-details: NCI tumour cell line growth inhibition, 48 h
measured-endpoint: TGI (µM)
Give bare numbers, in µM.

Some compounds with recorded TGI:
[
  {
    "compound": "COc1cccc(-c2nn(-c3ccccc3)cc2-c2ccnc(NCCCNC(=O)Nc3ccc(Cl)c(Cl)c3)c2)c1",
    "TGI [µM]": 4.34
  },
  {
    "compound": "COC(=O)[C@@]12OC[C@]34[C@H]([C@@H](O)[C@@H]1O)[C@@]1(C)[C@H](O)C(=O)C=C(C)[C@@H]1C[C@H]3OC(=O)C(OC(C)=O)[C@@H]24 (stereo partly drawn)",
    "TGI [µM]": 0.0624
  },
  {
    "compound": "CN[C@H](C#Cc1c(F)ccc2c1/C(=C/c1[nH]ccc1OC)C(=O)N2)CO",
    "TGI [µM]": 1.45
  },
  {
    "compound": "COc1ccc(C(=O)/C=C/c2ccc(OC)c(OCc3ccccc3)c2)cc1OC",
    "TGI [µM]": 19.6
  }
]

Quick batch: TGI for everything below.
1. COc1cc2c(cc1O)CC[C@@H]1[C@@H]2CC[C@]2(C)[C@@H](OCCN(C)C)CC[C@@H]12
2. CCC1CN2C(=N1)c1ccccc1-c1cc(Cl)ccc12 (stereo not drawn)
3. CC(=O)OC[C@]12CC[C@@H](C(=O)CBr)[C@@H]1[C@H]1CC[C@@H]3[C@@]4(C)CCCNC(C)(C)[C@@H]4CC[C@@]3(C)[C@]1(C)CC2

## Output
[0.531, 6.85, 5.66]

###

System: MDA-MB-468 breast
test-details: NCI tumour cell line growth inhibition, 48 h; in the data active = GI50 below about 0.43 µM; inactive = the rest
The reply should name one outcome from active, inactive

Reference set (2 entries):
[
  {
    "molecule": "O=C1C(N2CC2)=C(N2CC2)C(=O)C(N2CC2)=C1N1CC1",
    "class-assignment": "active"
  },
  {
    "molecule": "O=c1ccn(C2CC(O)C(CO)O2)c(=O)[nH]1 (centres undefined)",
    "class-assignment": "inactive"
  }
]

## Input // param item: COc1ccc(-c2nc(/C=N/Nc3cc(C)nc4ccc(Cl)cc34)c(C)o2)cc1 ; yields the recorded call
## Output inactive

## Input // param item: CN1CCN(CCOc2ccc(-c3cnc4c(-c5ccc(C(F)(F)F)cc5)cnn4c3)cc2)CC1 ; yields the recorded call
## Output inactive

## Input // param item: NC(=O)c1ccccc1Nc1ccc2nnc(-c3ccncc3)n2n1 ; yields the recorded call
## Output inactive
